Molecular target: T1, recombinant human Tim-3-Fc (R&D Systems, 2365-TM) (human, UniProt Q8TDQ0 22-202, biotinylated in the Galectin-9 competition ELISA (sites not given))
T1 construct: Bought protein; also called huTim-3-Fc; biotinylated Tim-3-Fc; not shown: Fc of the bought fusion protein
Assay: SPR Biacore, human Tim-3 Fc; KD estimated
pKd: −log10 of the molar value.

{"BINDER": "h22E11-VK4-1 × h22E11-VH4-30-4 (antibody, V domains shown, Humanized m22E11) VH: QVQLQESGPGLVKPSQTLSLTCTVSGFSLTSYGVHWIRQPPGKGLEWLVVIWSDGSTTYNPSLKSRVTISKDTSKNQVSLKLSSVTAADTAVYYCARQGGYRYDDAMDYWGQGTLVTVSS VL: DIVLTQSPDSLAVSLGERATINCKASQSVDYDGNSYVNWYQQKPGQPPKLLIYAASNLESGVPDRFSGSGSGTDFTLTISSLQAEDVAVYYCQQSNEDPYTFGQGTKVEIK", "pKd": 8.09}
{"BINDER": "h22E11-VK4-1 × h22E11-VH1-69 (antibody, V domains shown, Humanized m22E11) VH: QVQLVQSGAEVKKPGSSVKVSCKVSGFSLTSYGVHWVRQAPGQGLEWLVVIWSDGSTTYNQKFQGRVTITKDESTSTVYMELSSLRSEDTAVYYCARQGGYRYDDAMDYWGQGTLVTVSS VL: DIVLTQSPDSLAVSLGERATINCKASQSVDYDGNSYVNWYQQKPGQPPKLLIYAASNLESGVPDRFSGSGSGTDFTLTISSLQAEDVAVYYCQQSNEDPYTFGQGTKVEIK", "pKd": 8.26}
{"BINDER": "h22E11-5-IgG-LC × h22E11-5-IgG-HC (antibody, V domains shown, Humanized m22E11; also called h22E11-5 IgG (lot 2)) VH: EVQLVESGGGLVQPGGSLRLSCAVSGFSLTSYGVHWVRQAPGKGLEWLVVIWSDGSTTYNSALKSRFTISKDNAKNSVYLQMNSLRAEDTAVYYCARQGGYRYDDAMDYWGQGTLVTVSS VL: EIVLTQSPGTLSLSPGERATLSCKASQSVDYDGNSYVAWYQQKPGQAPRLLIYAASNLESGIPDRFSGSGSGTDFTLTISRLEPEDFAVYYCQQSNEDPYTFGQGTKVEIK", "pKd": 8.17}

Cited source: patent US20200190192A1
